Values were extracted from PubChem BioAssay (NCI).

# Test system: UACC-62 melanoma
# Protocol notes: NCI tumour cell line growth inhibition, 48 h; in the data active means GI50 below about 0.43 µM; inactive means the rest
Form entry, call: pick from active, inactive

INSERT INTO measurements (molecule, experimental_system, answer_label) VALUES
  ('O=C1c2ccccc2-c2c1c1ccccc1c(=O)n2CCCNCCO', 'UACC-62 melanoma', 'active'),
  ('COc1cccc2c1C(=O)c1c(O)c3c(c(O)c1C2=O)C[C@@](O)(C(=O)CO)CC3OC1CC(NCCCCC(OC(C)=O)OC(C)=O)C(O)C(C)O1 (stereo not given in full)', 'UACC-62 melanoma', 'active'),
  ('Cn1cc(C2=C(c3cn(C)c4cc(Cl)ccc34)C(=O)NC2=O)c2ccccc21', 'UACC-62 melanoma', 'active');

Q: Please share the test call associated with COC(=O)C([O][Ge]([CH3])([CH3])[CH3])c1ccccc1 (stereo not given) .
Ans: inactive

Q: Each molecule tested received a call. Report the one for CCN1CCN(c2nc(NNC(=O)c3cccc(OC)c3)nc(N3CCN(C(c4ccccc4)c4ccccc4)CC3)n2)CC1 .
Ans: inactive

Q: Please indicate how the test categorized Cn1ccnc1C(=O)/C=C/c1ccc(CC(=O)Nc2cc(F)c(F)c(F)c2)cc1 .
Ans: inactive

Q: Returns: the outcome recorded for CC(=O)[O-].CC(=O)[O-].CC(=O)[O-].CC(=O)[O-].CO.CO.CO.[Rh+2].[Rh+2].c1ccc(-c2ccccn2)nc1 in this assay.
Ans: inactive

Q: What classification did COc1ccc2c(c1)/C(=N/OC(C)=O)c1c-2c(Nc2ccc(/C(C)=N/OC(C)=O)cc2)nc2ccccc12 end up with in this test?
Ans: inactive

Q: // outcome(item) with item = Clc1ccc2c(NCCNc3nc(Cl)nc4ccccc34)ccnc2c1
Ans: inactive

Q: GET /call?item= CCN(CC)c1ccc(/C=C2/NC(=O)NC2=O)cc1 returns the recorded outcome of this test.
Ans: inactive

---

# reported TGI; entries follow
# System: 786-0 renal
# Protocol notes: NCI tumour cell line growth inhibition, 48 h

// worked examples, TGI included
INSERT INTO results (compound, observation_type, recorded_value) VALUES
  ('C/C(=N/NC(=O)c1ccccc1Nc1ccccc1C(=O)N/N=C(\C)c1ccc(C)cc1)c1ccc(C)cc1', 'TGI', '> 100 µM'),
  ('COc1ccc2nc(NC(=O)C(=O)C(C#N)c3ccc(CC#N)cc3)sc2c1 (stereo not drawn)', 'TGI', '> 100 µM'),
  ('O=C1/C(=C/c2ccc(Cl)cc2)COc2ccc(Br)cc21', 'TGI', '> 100 µM'),
  ('C=C1CC2C[C@H](OS(=O)(=O)c3ccc(C)cc3)C(C1)N2C (stereo partly drawn)', 'TGI', '> 100 µM'),
  ('CCOC(=O)Nc1ccc2nc(Sc3ccc(Cl)cc3)sc2c1', 'TGI', '40.3 µM'),
  ('COc1ccc(C(OCC2OC(n3ccc(Oc4c(F)c(F)c(F)c(F)c4F)nc3=O)CC2OP(OCCC#N)N(C(C)C)C(C)C)(c2ccccc2)c2ccc(OC)cc2)cc1 (stereo not drawn)', 'TGI', '> 100 µM'),
  ('Cc1cccc(-c2cc(=O)c3cc(C)cnc3[nH]2)c1', 'TGI', '> 100 µM'),
  ('c1ccc(C2C3=C(CCCC3)Nc3nnnn32)cc1 (stereo not drawn)', 'TGI', '> 100 µM'),
  ('CCN(CC)c1ccc(/C=C2/NC(=O)NC2=O)cc1', 'TGI', '> 100 µM'),
  ('O=C(Nc1ccc(I)cc1F)c1cc(F)ccc1O', 'TGI', '6.67 µM');

Q: Which TGI is reported for this compound? O=C(Nc1ccccc1C(=O)O)C(=Cc1ccccc1O)NC(=O)c1ccccc1
Ans: > 100 µM

Q: Which TGI reading was recorded for the compound Cc1ccc(S(=O)(=O)N/N=C/CN2C(=O)c3ccccc3C2=O)cc1 ?
Ans: > 100 µM

Q: I'd like to know its TGI. The compound in question is COc1cccc2c1C(=O)c1c(O)c3c(c(O)c1C2=O)C[C@@](O)(C(=O)CO)CC3OC1CC(NCCCCC(OC(C)=O)OC(C)=O)C(O)C(C)O1 (stereo partly drawn)
Ans: > 1 µM

Q: Quick one: TGI of CCCN(CCC)c1c([N+](=O)[O-])cc(C(N)=O)cc1[N+](=O)[O-] ?
Ans: > 100 µM

Q: Quick one: TGI for NS(=O)(=O)c1ccc(NS(=O)(=O)c2ccc(NC(=O)N(c3ccccc3)c3ccccc3)cc2)cc1 ?
Ans: > 100 µM

Q: Look at this compound and give its reported TGI. COC(=O)CCCCCCCCC(=O)c1c(C)[nH]c(/C=C2\N=C(c3ccc[nH]3)C=C2OC)c1C
Ans: > 43.4 µM

Q: Field request: TGI | item: COc1ccc(Cn2nc(OCc3ccccc3)c3cc([N+](=O)[O-])ccc32)cc1
Ans: > 100 µM

Q: May I ask what TGI has been recorded for COc1cc(C)c(S(=O)(=O)N(CCCN)OCCCN)c(C)c1C ?
Ans: > 100 µM

Q: # input compound: Cc1cnc2cc(Cl)ccc2c1SCC(=O)O ; wanted: its TGI
Ans: > 100 µM

Q: Reported TGI for NC(=O)c1nnc2c(F)cccc2c1N : what is it?
Ans: > 100 µM

Q: What does the record list as TGI for Cc1cccc2c1C(=O)/C(=C/c1ccccc1C(=O)O)C2 ?
Ans: > 100 µM

Q: Which TGI is listed for CO/C=C(/C(=O)OC)c1ccccc1[C@H]1C[C@@H]1c1ccccc1 ?
Ans: > 100 µM

Q: Requested field: TGI. Item: COC(=O)C12CC(NC(=O)c3csc([C@@H](C[C@H](C(C)C)N(C)C(=O)[C@@H](NC(=O)[C@H]4CCCCN4C)C(C)C)OC(C)=O)n3)(C1)C2
Ans: > 33.3 µM

Q: Item CC1CC2OC(=N)C1(C#N)C2(C#N)C#N (stereo not drawn) has what recorded TGI?
Ans: 44.9 µM

Q: Record request: TGI value, item O=C(c1nc2ccccc2[nH]1)C1C(c2cccc([N+](=O)[O-])c2)C2CC3CCCCC3N2[C@@]12C(=O)Nc1cc(Cl)ccc12 (stereo partly drawn)
Ans: 4.52 µM

Q: Reported TGI, compound O=C(/C=C/c1ccc(OCCCOc2ccc(/C=C/C(=O)c3ccc(Cl)cc3)cc2)cc1)c1ccc(Cl)cc1 : ____
Ans: > 100 µM

Q: Need TGI, item Cn1c(-c2cccs2)cc(-c2ccsc2)c1-c1ccsc1
Ans: > 100 µM

Q: Value lookup for TGI; key = CO[C@H]1/C=C/C=C/C=C/C[C@H](OC(=O)[C@@H](C)NC(=O)C2CCCCC2)[C@H](C)[C@@H](O)/C(C)=C\CCC2=CC(=O)C=C(NC(=O)C1)C2=O
Ans: 1.32 µM
